GI50 listing for selected compounds.
System: SK-MEL-28
method: NCI tumour cell line growth inhibition, 48 h
The source made the active and inactive calls. Rule as the data show it: active = GI50 up to about 1.1 µM and inactive = higher.
property: GI50

compound	measuredResult
C=CCN(c1cc(OC)c(NC(C)=O)cc1[N+](=O)[O-])S(C)(=O)=O	> 100 µM (inactive)
COC1=CC(C2c3cc4c(cc3[C@@H](Nc3ccc(F)cc3)C3COC(=O)[C@H]23)OCO4)=CC(=O)C1=O (stereo not given in full)	19.2 µM (inactive)
COC(=O)/C(C#N)=C(/NCCN)Nc1ccccc1	> 100 µM (inactive)
CC(C)(C)SC1=CCC[C@@H](P(=O)(c2ccccc2)c2ccccc2)[C@@H]2CCC[C@@H]12	24.3 µM (inactive)
COC(=O)N1CC2(CO)C3CC=C(C(=O)Nc4ccccc4Br)C2C1C3Br (stereo not given)	> 50 µM (inactive)
c1ccc2c(CC3NCCN3)cccc2c1	> 100 µM (inactive)
c1ccc2c(NCCCCCCCCNc3cccc4ccccc34)cccc2c1	19.5 µM (inactive)
CCc1c2c([nH]c(=S)c1C#N)CCC2	> 100 µM (inactive)
COc1cccc(CCn2c(N)c(-c3cc(Cl)cc(Cl)c3)c3ccc([N+](=O)[O-])cc3c2=O)c1	4.84 µM (inactive)
CCCC(=O)OCC1OC(n2cc(F)c(=O)[nH]c2=O)C(F)C1OC(=O)CCC (stereo not given)	> 100 µM (inactive)
O=[N+]([O-])c1ccc2c(c1)nc(Cc1ccc(Cl)cc1)n2C[C@@H]1CCCN2CCCCC12 (stereo not given in full)	14.6 µM (inactive)
CC1(C)OC[C@@H]([C@H](C=O)OCc2ccccc2)O1	> 100 µM (inactive)
C=C1C2=C(CCCC2)C(=O)OC12CCCCC2	79.4 µM (inactive)
CC1=CC[C@@]2(CO)[C@@H]([C@@H]1C)[C@H]1CC[C@@H]3[C@@]4(C)CC[C@H](O)C(C)(C)[C@@H]4CC[C@@]3(C)[C@]1(C)C[C@@H]2O	43.9 µM (inactive)
CN(C)CCNc1ccc(NCC[N+](C)(C)Cc2ccc([N+](=O)[O-])cc2)c2c1C(=O)c1c(O)ccc(O)c1C2=O	> 100 µM (inactive)
O=c1[nH]cc(F)c(=O)n1C1OC(CO)C(O)C1O (stereo not given)	> 100 µM (inactive)
c1ccc(CSc2nc(N3CCOCC3)c3cn[nH]c3n2)cc1	19.1 µM (inactive)
COC1(C)C(=O)N2C1N(C(=O)OC(C)(C)C)CC2(C)C (stereo not given)	> 100 µM (inactive)
CCCC(O)c1cn(-c2cccc(S(=O)(=O)O)c2)nn1 (stereo not given)	> 100 µM (inactive)
CCCC(=O)OC1CC(n2cc(F)c(=O)[nH]c2=O)OC1COP(=O)(OCC(Cl)(Cl)Cl)OCC(Cl)(Cl)Cl (stereo not given)	12.3 µM (inactive)

---

System: DMS-273
method: NCI tumour cell line growth inhibition, 48 h
Active and inactive are the calls of the source. No stated cut-off is given here; in the data, active = GI50 up to about 1.1 µM and inactive = higher.
GI50 listing for selected compounds.

compound	GI50
O=c1[nH]cc(F)c(=O)n1C1OC(CO)C(O)C1O (stereo not given)	> 100 µM (inactive)
COc1nc2c(c(O)c(C)c(=O)n2OC2OCC(OC(C)=O)C(OC(C)=O)C2OC(C)=O)c(=O)n1C (stereo not given)	> 100 µM (inactive)
N#CC1CC2(C(=O)C1=O)c1ccccc1-c1ccccc12 (stereo not given)	> 100 µM (inactive)
COc1ccc(-c2nc3c(nc2-c2ccc(OC)cc2)N(C)S(=O)(=O)N=C3N)cc1	41.6 µM (inactive)
[N-]=[N+]=NC(c1cn(C2CC(O)C(CO)O2)c(=O)[nH]c1=O)C(Br)Br (stereo not given)	> 100 µM (inactive)

---

Tested on: TK-10
method: NCI tumour cell line growth inhibition, 48 h
The source made the active and inactive calls. Cut-off read from the data, not from the text of the source: active = GI50 up to about 1.1 µM and inactive = higher.
GI50 listing for selected compounds.
property: GI50

compound	assayedTarget	property	measuredResult
CCN1CN(c2ccccc2)C2(CCN(CC3COc4ccccc4O3)CC2)C1=O (stereo unspecified)	TK-10	GI50	25.8 µM (inactive)
CCc1c2c([nH]c(=S)c1C#N)CCC2	TK-10	GI50	> 100 µM (inactive)
CCCCC1(C)C=C/C(=C2/C(=O)O/C(=C\C(=O)O)C2=O)O1 (stereo unspecified)	TK-10	GI50	> 100 µM (inactive)
O=c1oc2ccccc2cc1-c1cn2c(n1)sc1ccccc12	TK-10	GI50	> 100 µM (inactive)
Cc1ccc2c(c1)C1(C)OC(C=CC1=O)O2 (stereo unspecified)	TK-10	GI50	1.4 µM (inactive)
CC(C)OC1=C(CC2(C)OCCO2)C(=O)C12OCCO2	TK-10	GI50	> 100 µM (inactive)
COc1cccc2c(=O)oc(-c3ccc(C(C)(C)C)cc3)nc12	TK-10	GI50	> 100 µM (inactive)
CC(C)=C[C@@H]1C[C@H](C)c2c(O)cc(C)c3c2C1=C(C)C(=O)C3=O [ELISABATIN A]	TK-10	GI50	22.3 µM (inactive)
O=C(CSCC(=O)N/N=C/c1ccc(F)cc1)N/N=C/c1ccc(F)cc1	TK-10	GI50	> 100 µM (inactive)
COc1ccc(/[N+]([O-])=C/c2ccc(OC(=S)S)c(OC)c2)cc1	TK-10	GI50	85.1 µM (inactive)
CC[C@@]1(O)C(=O)OCc2c1c(Cl)c1n(c2=O)Cc2cc3ccccc3nc2-1	TK-10	GI50	19 µM (inactive)

---

Test system: OVCAR-5
method: NCI tumour cell line growth inhibition, 48 h
Active and inactive are the calls of the source. Rule as the data show it: active = GI50 up to about 1.1 µM and inactive = higher. Numbered stars: 1 amine (or outer) side, 2 acyl side, 3 side chain; on linkers, the order of the positions; unused ones are H or OH. Square brackets hold non-standard residues; d marks the D form. Peptide text beside a SMILES is read from it. * marks the point of attachment. X30 = CC(=O)N(C)SCC(N[*:1])C(=O)[*:2]; Cbz = O=C(OCc1ccccc1)*; Bn = c1ccc(C*)cc1

molecule	GI50
OCc1c[te]c(-c2ccccc2)c1	> 100 µM (inactive)
CC(=O)N(C)SCC(NC(=O)C(Cc1ccccc1)NC(=O)OCc1ccccc1)C(=O)NC(Cc1ccccc1)C(=O)NC(Cc1c[nH]c2ccccc12)C(=O)NC(CCCCNC(=O)OCc1ccccc1)C(=O)NC(C(=O)NC(CSN(C)C(C)=O)C(=O)NC(C(N)=O)C(C)OCc1ccccc1)C(C)OCc1ccccc1 (stereo unspecified) (Cbz-F[X30]FWK(Cbz)T(Bn)[X30]T(Bn)-NH2; configuration not given here)	> 100 µM (inactive)
COC(=O)c1ccc(OCCn2nnc(C(=O)NN)c2C(=O)NN)cc1	> 100 µM (inactive)
CC(Nc1ncc2c(n1)-c1ccccc1OC2)C(=O)O (stereo unspecified)	> 100 µM (inactive)
COC(=O)C1=C(CCCCO[Si](C)(C)C(C)(C)C)NC(=O)N2[C@@H](CCOCc3ccccc3)CC[C@H]12	33.1 µM (inactive)
O=C1OC(c2ccc(O)c(Cl)c2)(c2ccc(O)c(Cl)c2)c2ccc(Br)c3cccc1c23.O=C1OC(c2ccc(O)c(Cl)c2)(c2ccc(O)c(Cl)c2)c2cccc3c(Br)ccc1c23	20.7 µM (inactive)

---

Tested on: SF-268
method: NCI tumour cell line growth inhibition, 48 h
The source made the active and inactive calls. Rule as the data show it: active = GI50 up to about 1.1 µM and inactive = higher.
Possible outcomes: active, inactive

compound	assignedCategory
COC(=O)C1=C(OC)[C@H]2C#C/C=C\C#C[C@@H]3Nc4c(cc(O)c5c4C(=O)c4ccccc4C5=O)[C@]24O[C@@]34[C@H]1C	active
COc1c(O)c(C=O)c2c(O)c(-c3c(C)cc4c(C(C)C)c(OC)c(O)c(C=O)c4c3O)c(C)cc2c1C(C)C	inactive
Clc1ncnc(Cl)c1Cl	inactive
O=c1c(Cc2ccc(Cl)cc2)nnc2sc(-c3ccc(-c4ccc(F)c(Cl)c4)o3)nn12	inactive
O=C(O)Cc1ccc(N2N=C(c3ccccc3)CC2=O)cc1	inactive
CCOc1ccc2c(c1)[n+]([O-])c(C(N)=O)c(N)[n+]2[O-]	inactive
Cc1ccc2c(n1)NC(=O)C(Cc1ccccc1)(N=[N+]=[N-])C2=O (configuration not stated)	inactive
CC(C)/C(Cl)=N/OC(=O)Nc1cccc(C(F)(F)F)c1	inactive
O=C1C(Cl)N(c2ccc([N+](=O)[O-])cc2)C1c1c[nH]c2ccccc12 (configuration not stated)	inactive
N#CC1=C(c2ccccc2)OC2(N)OC(c3ccccc3)=C(C#N)C12C#N (configuration not stated)	inactive
C=Cc1c(-c2ccccc2)cnc2[nH]c3ccccc3c12	inactive
CCOC(=O)/C(C#N)=C\C=C1/C=CN=C2NCCN21	inactive
CC1=CC[C@@]2(CO)[C@@H]([C@@H]1C)[C@H]1CC[C@@H]3[C@@]4(C)CC[C@H](O)C(C)(C)[C@@H]4CC[C@@]3(C)[C@]1(C)C[C@@H]2O	inactive
COc1cc(-c2ccc(Nc3ccccc3C(=O)O)c(OC)c2)ccc1Nc1ccccc1C(=O)O	inactive
CC(=O)O[C@H]1CCc2c(cc(N)c3c2C(=O)C[C@]2(C)C([C@H](C)CCCC(C)C)CCC32C)C1(C)C (some centres not stated)	inactive
C=CCc1cc(-c2cc(CC=C)c(O)c(CNC)c2)cc(CNC)c1O	inactive
CSCC[C@@H](NC(=O)[C@H](CC(C)C)NC(=O)C(Cc1cnc[nH]1)NC(=O)CNC(=O)[C@@H](NC(=O)[C@H](C)NC(=O)[C@H](Cc1cn(C=O)c2ccccc12)NC(=O)[C@H](CCC(N)=O)NC(=O)[C@@H](N)CC(N)=O)C(C)C)C(N)=O (some centres not stated)	inactive
C/C(=N/Nc1ccc([N+](=O)[O-])cc1[N+](=O)[O-])C(CC(C(=O)Nc1ccccc1C)/C(C)=N\Nc1ccc([N+](=O)[O-])cc1[N+](=O)[O-])C(=O)Nc1ccccc1C (configuration not stated)	inactive
COC(=O)CCC(=O)CC(=O)C(=O)Nc1c(Cl)cc([N+](=O)[O-])cc1Cl	inactive
COc1ccc(-c2nc3c(nc2-c2ccc(OC)cc2)N(C)S(=O)(=O)N=C3N)cc1	inactive
Cc1ccc(NC(=O)c2cc(S(=O)(=O)Nc3n[nH]c(=O)n3-c3ccccc3)c(S)cc2Cl)cc1	inactive
N#CC1CC2(C(=O)C1=O)c1ccccc1-c1ccccc12 (configuration not stated)	inactive
Nc1nc(Cl)cc(NCC2(CO)CC(CCCc3ccccc3)C2)n1 (configuration not stated)	inactive
O=c1c2cc(Br)ccc2nc(-c2ccccc2Cl)n1NCC1(O)OCC(O)C(O)C1O (configuration not stated)	inactive
CN1C(=O)c2c(ccc3c2OCO3)C2C(O)Cc3cc4c(cc3C21)OCO4 (configuration not stated)	inactive
O=S(=O)(OI(OI(OS(=O)(=O)C(F)(F)F)c1ccccc1)c1ccccc1)C(F)(F)F	inactive
CS(=O)(=O)OCCN(CCOS(C)(=O)=O)c1ccc(/C=N/c2cccc(Cl)c2)cc1	inactive
Cc1nc(N)sc1/N=N/c1ccccc1Br	inactive
Cc1ccc(Cc2n[nH]c(=O)n2-c2ccccc2)cc1	inactive
CCOc1ccc(NC(=O)CC2C(=O)Nc3ccccc3[S+]2[O-])cc1 (configuration not stated)	inactive
Clc1ccc(CCN2CCN(CCCc3ccccc3)CC2)cc1Cl	inactive
CN(CC#N)C(=O)Cc1ccc([N+](=O)[O-])cc1	inactive
C[Si](C)(c1ccccc1)C1CC(=O)CC(=O)C1	inactive
CC(C)(C)c1cc(Br)c(O)c(CN(Cc2cc(C(C)(C)C)cc(Br)c2O)C2CCCCC2)c1	inactive
NS(=O)(=O)c1nnc(NC(=O)c2ccccc2)s1	inactive
COc1cc2c(c(OC)c1OC)-c1ccc(SC)cc1[C@H](OC(=O)c1ccccc1)CC2	active
Cc1cc2nc(C#N)c(N3CCN(c4ccc([N+](=O)[O-])cc4)CC3)nc2cc1C	inactive
